System: MRC-5 (normal lung fibroblast)
Test: MTS cytotoxicity assay (CellTiter 96 AQueous One), compounds, 72 h
Assay type: cell-based
Details: Homo sapiens, MRC5, MRC-5 normal lung fibroblasts
Method: Compounds 1 − 5 were tested for their cytotoxic effects against several cancer cell lines, including MOLM-13 (acute myeloid leukemia), MV-4-11 (biphenotypic B myelomonocytic leukemia), THP-1 (acute monocytic leukemia), A2058 (human melanoma), MCF7 (human breast adenocarcinoma), and non-cancerous MRC-5 (normal lung fibroblast) using an MTS based CellTiter 96® AQueous One Solution Assay. […]
*1 amine or outer side, *2 acyl side, *3 side chain or, on linkers, in order; H or OH if unused. Where a SMILES comes first, the peptide text is derived from it. [ ]: non-standard residue; d: D form. ξ: configuration not given here. Pentanoyl(2-O,4-OH,5-Cl) = O=C(O)C(O)CC(O)CCl; NMeI = CC[CH](C)[CH](NC)C(=O)O; X1 = CC1CCN([*:1])C1C(=O)[*:2]; ξLac(3-iPr) = CC(C)CC(O)C(=O)O; NMeA = CN[CH](C)C(=O)O; βAla = NCCC(=O)O
Field: pIC50. Provide a value for each of the compounds that follow.
Answers are plain numbers, as −log10 of the molar value.

CCC(C)C1NC(=O)C2CCCN2C(=O)C(CC(O)CCl)OC(=O)CCNC(=O)C(C)N(C)C(=O)C(C(C)CC)N(C)C1=O (centres unmarked) [Compound 1, destruxin-A4 chlorohydrin] (cyclo([Pentanoyl(2-O,4-OH,5-Cl)]PI[NMeI][NMeA][βAla]); configuration not given here)    5.66

Now for the compound whose pIC50 we want.
Supply pIC50 value. Item: CCC(C)C1NC(=O)C2C(C)CCN2C(=O)C(CC(C)C)OC(=O)CCNC(=O)C(C)N(C)C(=O)C(C(C)CC)N(C)C1=O (centres unmarked) [Compound 5, homodestcardin] (cyclo([X1]I[NMeI][NMeA][βAla][ξLac(3-iPr)]); configuration not given here)
5.25
